- Test system: HCC 2998
- protocol-details: NCI tumour cell line growth inhibition, 48 h
Calls of active or inactive are those of the source. No stated cut-off is given here; in the data, active = GI50 up to about 1.1 µM and inactive = higher.
Tick one outcome: 1 (active), 0 (inactive)

compound	class-assignment
C/C(=C\C(=O)Nc1ccc2[nH]nnc2c1)Nc1ccc2[nH]nnc2c1	0
O=C1c2ccccc2C(=O)c2nc(-c3ccccc3)c(-c3ccccc3)nc21	0

Input line: Could you kindly confirm the outcome this assay logged for Cc1ccc2nc(-n3c(/C=C/c4ccccc4O)nc4ccccc4c3=O)sc2c1 ?
Output line: 0

Input line: Could you kindly confirm the outcome this assay logged for CC(=O)OC/C=C/Cn1nc(Br)c(=O)[nH]c1=O ?
Output line: 0

Input line: Could you kindly confirm the outcome this assay logged for CC(=O)/C=C/c1cccc(N=S)c1 ?
Output line: 0
